Provenance of the data: the supplement of paper PMC10201428

B1: library; a variant is named by its letters at N, in order (parent)
chain: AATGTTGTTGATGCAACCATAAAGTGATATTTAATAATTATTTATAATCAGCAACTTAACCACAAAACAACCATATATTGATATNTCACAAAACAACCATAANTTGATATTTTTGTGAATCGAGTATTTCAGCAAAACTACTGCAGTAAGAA

Variants of: B1
Procedure Details: relative integration efficiency (T-RL orientation) vs wild-type transposon end (log2 (normalized fold change)); transposon end mutated: left end; higher = more efficient transposition
Condition Details: with VchCAST RNA-guided transposition machinery (E. coli BL21(DE3) host, lacZ target)
Known relative integration efficiency (log2) of a selection of variants
Number, no unit, nothing else.

// solved cases for relative integration efficiency (log2) follow
1) TA G24A T30A A70C T76A T84A C87A A96C T110A T113A	0.271
2) CG A15T	-0.148
3) CG A77C	0.337
4) CG T41C	0.304
5) CG A29C T30G T31G T32G	-0.723

Input: Given CG T30A T31A T32A A33T , state its recorded relative integration efficiency (log2).
Output: -0.346

Input: For the variant shown here, TA G24A T30A T76A T78G C87A T104A T110A T113A , give the reported relative integration efficiency (log2).
Output: -0.242

Input: Please give the measured relative integration efficiency (log2) for this variant: CG A50C G51T
Output: -0.196

Input: Name the reported relative integration efficiency (log2) value associated with the variant CG A21T
Output: -0.164

Input: Fill in the blank: the reported relative integration efficiency (log2) of CG T32G T86G T112G is ____.
Output: -0.686
